conditions: in n-propanol, 283.2 K
assayReadout: solubility (mole fraction)

1. Cc1cc(=O)c(C(=O)N[C@@H](C(=O)N[C@@H]2C(=O)N3C(C(=O)O)=C(CSc4nnnn4C)CS[C@H]23)c2ccc(O)cc2)c[nH]1 ... 0.00027

----------
conditions: in n-butanol, 298.2 K
assayReadout: solubility (mole fraction)

1. Cc1cc(=O)c(C(=O)N[C@@H](C(=O)N[C@@H]2C(=O)N3C(C(=O)O)=C(CSc4nnnn4C)CS[C@H]23)c2ccc(O)cc2)c[nH]1 ... 0.0002

----------
settings: in n-butanol, 283.2 K
assayReadout: solubility (mole fraction)

1. Cc1cc(=O)c(C(=O)N[C@@H](C(=O)N[C@@H]2C(=O)N3C(C(=O)O)=C(CSc4nnnn4C)CS[C@H]23)c2ccc(O)cc2)c[nH]1 ... 0.000115

----------
settings: in ethanol, 278.2 K
assayReadout: solubility (mole fraction)

1. Cc1cc(=O)c(C(=O)N[C@@H](C(=O)N[C@@H]2C(=O)N3C(C(=O)O)=C(CSc4nnnn4C)CS[C@H]23)c2ccc(O)cc2)c[nH]1 ... 0.000445

----------
settings: in isopropanol, 288.2 K
assayReadout: solubility (mole fraction)

1. Cc1cc(=O)c(C(=O)N[C@@H](C(=O)N[C@@H]2C(=O)N3C(C(=O)O)=C(CSc4nnnn4C)CS[C@H]23)c2ccc(O)cc2)c[nH]1 ... 0.000187

----------
conditions: in water, 288.2 K
assayReadout: solubility (mole fraction)

1) Cc1cc(=O)c(C(=O)N[C@@H](C(=O)N[C@@H]2C(=O)N3C(C(=O)O)=C(CSc4nnnn4C)CS[C@H]23)c2ccc(O)cc2)c[nH]1 ... 5.8e-07

----------
settings: in n-butanol, 293.2 K
assayReadout: solubility (mole fraction)

1. Cc1cc(=O)c(C(=O)N[C@@H](C(=O)N[C@@H]2C(=O)N3C(C(=O)O)=C(CSc4nnnn4C)CS[C@H]23)c2ccc(O)cc2)c[nH]1 ... 0.000166

----------
conditions: in isopropanol, 278.2 K
assayReadout: solubility (mole fraction)

1) Cc1cc(=O)c(C(=O)N[C@@H](C(=O)N[C@@H]2C(=O)N3C(C(=O)O)=C(CSc4nnnn4C)CS[C@H]23)c2ccc(O)cc2)c[nH]1 ... 0.000118

----------
settings: in n-butanol, 278.2 K
assayReadout: solubility (mole fraction)

1) Cc1cc(=O)c(C(=O)N[C@@H](C(=O)N[C@@H]2C(=O)N3C(C(=O)O)=C(CSc4nnnn4C)CS[C@H]23)c2ccc(O)cc2)c[nH]1 ... 9.53e-05

----------
conditions: in water, 293.2 K
assayReadout: solubility (mole fraction)

1. Cc1cc(=O)c(C(=O)N[C@@H](C(=O)N[C@@H]2C(=O)N3C(C(=O)O)=C(CSc4nnnn4C)CS[C@H]23)c2ccc(O)cc2)c[nH]1 ... 6.99e-07

----------
conditions: in water, 283.2 K
assayReadout: solubility (mole fraction)

1) Cc1cc(=O)c(C(=O)N[C@@H](C(=O)N[C@@H]2C(=O)N3C(C(=O)O)=C(CSc4nnnn4C)CS[C@H]23)c2ccc(O)cc2)c[nH]1 ... 4.82e-07

Hey, just so you know, these numbers are from BigSolDB 2.1.
